This collection of values is drawn from patent US10023579B2.

target: WT-LRRK2 (recombinant GST-LRRK2 delta970) (Homo sapiens); construct: Recombinant GST-LRRK2 (delta970); GST (N); host or cells: baculovirus-infected Sf9 insect cells; assay: LRRK2 kinase assay, wild type (32P radiometric, peptide substrate); type: biochemical; conditions: WT-LRRK2 30 nM, ATP ~92 μM (Km), 30 min at 30° C.
measurement label: IC50 (µM)

Use these answered entries as a reference point.
>>> experimental_result("Cc1cc(Nc2nc(N[C@@H](C)C3CC3)c3cc[nH]c3n2)n[nH]1 [Compound 36]")
0.038
>>> experimental_result("CC(C)n1ccc(Nc2nc(N[C@@H](C)C3CC3)c3nc[nH]c3n2)n1 [Compound 59]")
0.051
>>> experimental_result("C[C@H](Nc1nc(Nc2cnn(C)c2)nc2[nH]cnc12)C1CC1 [Compound 9]")
0.038
>>> experimental_result("Cc1c(Nc2nc(N[C@@H](C)C3CCCCC3)c3cc[nH]c3n2)cnn1C(C)C [Compound 25]")
0.042

I: CC(C)n1cc(Nc2nc(N[C@@H](C)c3ccccc3)c3cc[nH]c3n2)cn1 [Compound 22]
II: Cn1cc(Nc2nc(NC3CCC3)c3cc[nH]c3n2)cn1 [Compound 7]
III: CNC(=O)C(C)n1cc(Nc2nc(N[C@@H](C)C3CC3)c3cc[nH]c3n2)c(Cl)n1 (stereo partly drawn) [Compound 46]
q: hey, can you rank those molecules up there by IC50? biggest number first please Answer with the labels in sequence, matching the requested order.
a: I, III, II

a: Cc1cc(Nc2nc(N[C@@H](C)C3CC3)c3nc[nH]c3n2)nn1C(C)C [Compound 60]
b: CC(C)n1cc(Nc2nc(NC3CCC3)c3nc[nH]c3n2)cn1 [Compound 13]
q: Select the item whose IC50 value is smaller, choosing between a and b . Lab note: record the label of whichever item you select.
a: b

* * *

molecular target: G2019S-LRRK2 (recombinant GST-LRRK2 delta970) (Homo sapiens, UniProt Q5S007, G2019S); construct: Recombinant GST-LRRK2 (delta970); GST (N); host or cells: baculovirus-infected Sf9 insect cells; assay: LRRK2 kinase assay, G2019S mutant (32P radiometric, peptide substrate); format: biochemical; details: G2019S-LRRK2 30 nM, ATP ~52 μM (Km), 30 min at 30° C.
Sequence (Q5S007 970-2527 G2019S limits assumed): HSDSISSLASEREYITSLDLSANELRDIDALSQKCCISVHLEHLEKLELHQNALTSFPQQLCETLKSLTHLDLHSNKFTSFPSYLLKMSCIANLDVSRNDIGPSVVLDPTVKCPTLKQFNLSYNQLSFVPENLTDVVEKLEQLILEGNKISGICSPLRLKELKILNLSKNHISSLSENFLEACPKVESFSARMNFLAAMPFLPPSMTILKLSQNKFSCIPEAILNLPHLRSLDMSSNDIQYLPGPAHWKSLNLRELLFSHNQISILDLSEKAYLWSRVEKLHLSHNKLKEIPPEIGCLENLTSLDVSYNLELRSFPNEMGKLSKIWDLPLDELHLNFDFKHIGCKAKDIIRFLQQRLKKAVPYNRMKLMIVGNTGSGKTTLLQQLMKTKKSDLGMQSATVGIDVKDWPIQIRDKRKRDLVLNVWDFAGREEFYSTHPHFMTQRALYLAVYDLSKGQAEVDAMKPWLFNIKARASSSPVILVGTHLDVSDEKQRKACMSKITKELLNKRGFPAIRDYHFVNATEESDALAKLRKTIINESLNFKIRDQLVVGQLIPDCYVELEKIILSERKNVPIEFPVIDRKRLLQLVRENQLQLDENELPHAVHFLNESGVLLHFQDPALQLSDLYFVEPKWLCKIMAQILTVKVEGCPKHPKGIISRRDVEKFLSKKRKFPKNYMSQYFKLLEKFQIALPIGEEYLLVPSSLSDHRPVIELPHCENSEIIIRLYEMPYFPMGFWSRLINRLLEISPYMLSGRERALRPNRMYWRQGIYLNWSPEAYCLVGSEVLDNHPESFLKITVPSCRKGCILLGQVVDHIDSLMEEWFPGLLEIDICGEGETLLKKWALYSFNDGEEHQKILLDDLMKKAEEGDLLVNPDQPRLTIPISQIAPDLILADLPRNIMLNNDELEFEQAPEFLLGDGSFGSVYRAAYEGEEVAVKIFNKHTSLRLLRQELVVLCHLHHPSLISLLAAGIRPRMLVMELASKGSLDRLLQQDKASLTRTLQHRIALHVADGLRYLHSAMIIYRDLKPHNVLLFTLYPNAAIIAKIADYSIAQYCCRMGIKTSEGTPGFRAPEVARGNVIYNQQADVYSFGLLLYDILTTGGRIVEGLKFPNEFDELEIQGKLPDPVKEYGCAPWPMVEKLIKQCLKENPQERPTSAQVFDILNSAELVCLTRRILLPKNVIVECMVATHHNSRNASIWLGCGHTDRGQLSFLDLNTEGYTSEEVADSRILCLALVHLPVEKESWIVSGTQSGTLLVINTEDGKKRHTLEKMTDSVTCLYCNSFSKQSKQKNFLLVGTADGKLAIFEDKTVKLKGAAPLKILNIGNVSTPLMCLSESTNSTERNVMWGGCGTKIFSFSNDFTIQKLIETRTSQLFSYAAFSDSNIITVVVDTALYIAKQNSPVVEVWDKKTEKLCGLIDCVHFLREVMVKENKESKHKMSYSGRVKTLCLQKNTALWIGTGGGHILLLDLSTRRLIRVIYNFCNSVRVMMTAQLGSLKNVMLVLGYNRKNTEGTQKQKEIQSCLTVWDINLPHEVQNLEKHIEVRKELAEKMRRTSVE
measurement label: IC50 (µM)

Worked cases, answers included:
>>> experimental_result("Cc1cc(Nc2nc(N[C@@H](C)C3CC3)c3nc[nH]c3n2)n[nH]1 [Compound 10]")
0.048
>>> experimental_result("COCC(C)n1cc(Nc2nc(N(C)[C@@H](C)C3CC3)c3cc[nH]c3n2)cn1 (stereo partly drawn) [Compound 49]")
0.069
>>> experimental_result("CC(C)n1ccc(Nc2nc(N[C@@H](C)C3CC3)c3nc[nH]c3n2)n1 [Compound 59]")
0.115
>>> experimental_result("C[C@H](Nc1nc(Nc2cnn(C)c2)nc2[nH]cnc12)C1CC1 [Compound 9]")
0.1
>>> experimental_result("Cc1c(Nc2nc(N[C@@H](C)C3CCCCC3)c3cc[nH]c3n2)cnn1C(C)C [Compound 25]")
0.043

I: C[C@H](Nc1nc(Nc2cn([C@@H](C)CO)nn2)nc2[nH]ccc12)C1CC1 [Compound 58]
II: Cc1c(Nc2nc(N[C@@H](C)c3ccccc3)c3cc[nH]c3n2)cnn1C(C)C [Compound 24]
q: # returns the entry with the larger IC50; inputs I and II Pick one; state its label.
a: I

A: C[C@H](Nc1nc(Nc2cn(C3COC3)nn2)nc2[nH]ccc12)C1CC1 [Compound 56]
B: CCn1cc(Nc2nc(N[C@@H](C)C3CC3)c3cc[nH]c3n2)cn1 [Compound 29]
q: Lower value for measured IC50? Options: A , B Give the label of your selection.
a: B

A: CC(C)n1cc(Nc2nc(N[C@@H](C)C3CCC3)c3cc[nH]c3n2)cn1 [Compound 42]
B: CC(C)n1cc(Nc2nc(NC3CCC3)c3nc[nH]c3n2)cn1 [Compound 13]
C: CC(C)n1cc(Nc2nc(N[C@@H](C)C3CC3)c3nc[nH]c3n2)cn1 [Compound 12]
q: Hey, can you sort those molecules up there by IC50, smallest first? Lab note: record answer as labels in requested order.
a: B, C, A
(B: 0.015 µM, C: 0.022 µM, A: 0.078 µM)

* * *

target: WT-LRRK2 (recombinant GST-LRRK2 delta970) (Homo sapiens, UniProt Q5S007); construct: Recombinant GST-LRRK2 (delta970); GST (N); host or cells: baculovirus-infected Sf9 insect cells; assay: LRRK2 kinase assay, wild type (32P radiometric, peptide substrate); format: biochemical; conditions: WT-LRRK2 30 nM, ATP ~92 μM (Km), 30 min at 30° C.
Sequence (Q5S007 970-2527 limits assumed): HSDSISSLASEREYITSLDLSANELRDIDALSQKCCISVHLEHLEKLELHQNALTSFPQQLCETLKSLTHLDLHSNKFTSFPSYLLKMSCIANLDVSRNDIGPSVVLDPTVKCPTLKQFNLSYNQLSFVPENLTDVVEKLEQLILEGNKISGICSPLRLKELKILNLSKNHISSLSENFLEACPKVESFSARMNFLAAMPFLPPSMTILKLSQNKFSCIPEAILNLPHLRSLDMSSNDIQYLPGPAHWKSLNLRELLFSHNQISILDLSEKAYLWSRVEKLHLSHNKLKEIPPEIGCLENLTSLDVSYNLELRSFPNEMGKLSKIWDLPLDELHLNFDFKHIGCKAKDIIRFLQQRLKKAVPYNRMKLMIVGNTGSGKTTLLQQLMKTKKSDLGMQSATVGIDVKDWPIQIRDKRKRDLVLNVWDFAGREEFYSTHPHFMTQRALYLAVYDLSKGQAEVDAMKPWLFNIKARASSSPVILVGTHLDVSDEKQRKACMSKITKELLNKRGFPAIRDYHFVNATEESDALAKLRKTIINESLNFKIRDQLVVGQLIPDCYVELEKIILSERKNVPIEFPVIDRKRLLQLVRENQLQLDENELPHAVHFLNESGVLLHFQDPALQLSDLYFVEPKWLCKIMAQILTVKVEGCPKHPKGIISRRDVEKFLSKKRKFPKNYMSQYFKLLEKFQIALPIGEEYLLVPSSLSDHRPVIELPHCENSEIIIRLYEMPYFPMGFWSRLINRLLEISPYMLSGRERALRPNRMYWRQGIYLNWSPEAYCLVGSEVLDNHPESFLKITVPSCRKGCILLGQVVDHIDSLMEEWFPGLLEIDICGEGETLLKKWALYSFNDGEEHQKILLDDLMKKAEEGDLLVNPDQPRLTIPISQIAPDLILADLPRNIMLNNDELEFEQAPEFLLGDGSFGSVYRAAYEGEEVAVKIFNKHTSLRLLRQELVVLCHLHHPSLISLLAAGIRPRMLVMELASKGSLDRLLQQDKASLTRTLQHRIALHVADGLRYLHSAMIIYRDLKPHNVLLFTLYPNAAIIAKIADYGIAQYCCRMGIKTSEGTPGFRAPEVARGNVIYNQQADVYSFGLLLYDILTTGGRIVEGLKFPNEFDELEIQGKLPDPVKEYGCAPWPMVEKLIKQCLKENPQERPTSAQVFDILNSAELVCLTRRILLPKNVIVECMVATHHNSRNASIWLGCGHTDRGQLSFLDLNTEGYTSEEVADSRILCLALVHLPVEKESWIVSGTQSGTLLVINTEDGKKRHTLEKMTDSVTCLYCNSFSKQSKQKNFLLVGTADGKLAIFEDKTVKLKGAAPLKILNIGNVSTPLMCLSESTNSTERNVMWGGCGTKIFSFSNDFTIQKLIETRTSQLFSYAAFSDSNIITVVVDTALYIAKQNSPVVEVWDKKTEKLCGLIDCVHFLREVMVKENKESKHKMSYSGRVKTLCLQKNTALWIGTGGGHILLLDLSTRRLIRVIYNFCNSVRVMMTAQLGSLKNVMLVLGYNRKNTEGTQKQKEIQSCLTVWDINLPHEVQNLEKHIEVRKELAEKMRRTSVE
measurement label: IC50 (µM)

# annotated cases, reported IC50 shown
>>> experimental_result("C[C@H](Nc1nc(Nc2cn(C3COC3)nn2)nc2[nH]ccc12)C1CC1 [Compound 56]")
0.073
>>> experimental_result("Cc1c(Nc2nc(N[C@H]3CCc4ccccc43)c3cc[nH]c3n2)cnn1C(C)C(=O)N1CCN(C)CC1 (some centres unmarked) [Compound 18]")
0.037
>>> experimental_result("COCc1cc(Nc2nc(N[C@@H](C)C3CC3)c3cc[nH]c3n2)n[nH]1 [Compound 61]")
0.064
>>> experimental_result("CC(C)n1cc(Nc2nc(N(C)[C@@H](C)C3CC3)c3cc[nH]c3n2)cn1 [Compound 48]")
0.019
>>> experimental_result("CC(C)n1cc(Nc2nc(N[C@@H](C)C3CC3)c3nc[nH]c3n2)cn1 [Compound 12]")
0.01
>>> experimental_result("CC(O)Cn1cc(Nc2nc(N[C@@H](C)C3CC3)c3cc[nH]c3n2)nn1 (some centres unmarked) [Compound 54]")
0.021

I: CC(C)n1cc(Nc2nc(N[C@@H](C)C3CCC3)c3cc[nH]c3n2)cn1 [Compound 42]
II: CCn1cc(Nc2nc(N[C@@H](C)C3CC3)c3cc[nH]c3n2)cn1 [Compound 29]
q: Which of the two items, I and II , has the greater recorded IC50? Reply with the label of the item you choose.
a: I
(I: 0.067 µM, II: 0.012 µM)

* * *

target: WT-LRRK2 (recombinant GST-LRRK2 delta970) (Homo sapiens); construct: Recombinant GST-LRRK2 (delta970); GST (N); host or cells: baculovirus-infected Sf9 insect cells; assay: LRRK2 kinase assay, wild type (32P radiometric, peptide substrate); type: biochemical; conditions: WT-LRRK2 30 nM, ATP ~92 μM (Km), 30 min at 30° C.
measurement label: IC50 (µM)

In the examples that follow, each entry is paired with its recorded IC50.
>>> experimental_result("C[C@H](Nc1nc(Nc2cn(C3CCOC3)nn2)nc2[nH]ccc12)C1CC1 (stereo in doubt) [Compound 50]")
0.04
>>> experimental_result("C[C@H](Nc1nc(Nc2cnn(CCN(C)C)c2)nc2[nH]ccc12)C1CC1 [Compound 41]")
0.05
>>> experimental_result("C[C@H](Nc1nc(Nc2cnn(C3CCN(C)CC3)c2)nc2[nH]ccc12)C1CC1 [Compound 31]")
0.02

P: C[C@H](Nc1nc(Nc2cnn(C)c2)nc2[nH]ccc12)C1CC1 [Compound 28]
Q: COCCn1cc(Nc2nc(N[C@@H](C)C3CC3)c3cc[nH]c3n2)cn1 [Compound 32]
q: Kindly identify which of P and Q has the larger recorded IC50 value. Answer with the label corresponding to your selection.
a: P
(P: 0.02 µM, Q: 0.011 µM)

* * *

target: G2019S-LRRK2 (recombinant GST-LRRK2 delta970) (Homo sapiens, UniProt Q5S007, G2019S); construct: Recombinant GST-LRRK2 (delta970); GST (N); host or cells: baculovirus-infected Sf9 insect cells; assay: LRRK2 kinase assay, G2019S mutant (32P radiometric, peptide substrate); format: biochemical; conditions: G2019S-LRRK2 30 nM, ATP ~52 μM (Km), 30 min at 30° C.
measurement label: IC50 (µM)

Please review the entries below; each comes with its answer.
>>> experimental_result("CC(C)n1cc(Nc2nc(NC3CCC3)c3cc[nH]c3n2)cn1 [Compound 8]")
0.009
>>> experimental_result("COCc1cc(Nc2nc(N[C@@H](C)C3CC3)c3cc[nH]c3n2)n[nH]1 [Compound 61]")
0.099

I: Cc1c(Nc2nc(N[C@H]3CCc4ccccc43)c3cc[nH]c3n2)cnn1C(C)C(=O)N1CCN(C)CC1 (stereo partly shown) [Compound 18]
II: C[C@H](Nc1nc(Nc2cnn(C3CCN(C)CC3)c2)nc2[nH]ccc12)C1CC1 [Compound 31]
q: Min IC50? I | II Mark your selection by writing its label.
a: II
